- Study System: human MyD88 (human) (UniProt Q99836)
- Procedure Summary: P3 phage display panning on plate-immobilised MyD88, after round 4, NGS
Population for assorted binders

Here are 2 binders together with their reported answers.
Binder | Population
SELRVVDDGSVSPLEM | 1.42%
YNFISHLYDALHRNRI | 0.84%

Query: Population; subject: `DTKLKKGESIAPELLR` 0.72%

Query: Population; subject: `KEVEGWRDALTKVASL` 1.8%

Query: Population; subject: `NELVHVWSSKANSLVG` 2.57%

Query: Population; subject: `TSHLHHALRLNKIETF` 0.6%

Query: Population; subject: `YTALTNSGFHTFRDND` 5.12%
